Source listed as the supplement of paper PMC10307832.

Exercise: for every item that follows, state its recorded relative viability.
system: LOU-NH91; assay: relative viability (nuclei count vs DMSO), 5 days (fraction); higher = more cells survive; settings: first compound 158.11 µM
Answers are plain numbers.

Parameters: items (list). Returns: relative viability for each item.
1. O=C(O)CCCCC(CCSCc1ccccc1)SCc1ccccc1 (stereo unspecified) [CPI-613] + CS(=O)(=O)N1CCN(Cc2cc3nc(-c4cccc5[nH]ncc45)nc(N4CCOCC4)c3s2)CC1 [Pictilisib] (partner 1 µM)
2. O=C(O)CCCCC(CCSCc1ccccc1)SCc1ccccc1 (stereo unspecified) [CPI-613] + NC(=O)Nc1cc(-c2cccc(F)c2)sc1C(=O)N[C@H]1CCCNC1 [AZD7762] (partner 0.2 µM)
3. O=C(O)CCCCC(CCSCc1ccccc1)SCc1ccccc1 (stereo unspecified) [CPI-613] + COc1cccc2cc(-c3nc([C@H]4CC[C@H](C(=O)O)CC4)n4ncnc(N)c34)[nH]c12 [OSI-027] (partner 0.5 µM)
4. O=C(O)CCCCC(CCSCc1ccccc1)SCc1ccccc1 (stereo unspecified) [CPI-613] + N=C(N)NC(=N)NCCc1ccccc1 [Phenformin] (partner 250 µM)
5. O=C(O)CCCCC(CCSCc1ccccc1)SCc1ccccc1 (stereo unspecified) [CPI-613] + Cc1cc(Nc2cc(N3CCN(C)CC3)nc(Sc3ccc(NC(=O)C4CC4)cc3)n2)n[nH]1 [Tozasertib] (partner 0.1 µM)
6. O=C(O)CCCCC(CCSCc1ccccc1)SCc1ccccc1 (stereo unspecified) [CPI-613] + C[C@@H](Oc1cc(-c2cnn(C3CCNCC3)c2)cnc1N)c1c(Cl)ccc(F)c1Cl [Crizotinib] (partner 1 µM)

1. 0.532
2. 0.633
3. 0.686
4. 0.504
5. 0.684
6. 0.71

* * *

test system: NCI-H441; test: relative viability (nuclei count vs DMSO), 5 days (fraction); higher = more cells survive; conditions: first compound 0.002 µM
QUANTITY KIND: relative viability
One number for each entry.

Worked cases, relative viability given:
MOLECULE: CC(=O)O[C@@]12CO[C@@H]1C[C@H](O)[C@@]1(C)C(=O)[C@H](O)C3=C(C)[C@@H](OC(=O)[C@H](O)[C@@H](NC(=O)OC(C)(C)C)c4ccccc4)C[C@@](O)([C@@H](OC(=O)c4ccccc4)[C@H]21)C3(C)C [Docetaxel] + Nc1ncn([C@H]2C[C@H](O)[C@@H](CO)O2)c(=O)n1 [Decitabine] (partner 2 µM)
relative viability: 0.178
--
MOLECULE: CC(=O)O[C@@]12CO[C@@H]1C[C@H](O)[C@@]1(C)C(=O)[C@H](O)C3=C(C)[C@@H](OC(=O)[C@H](O)[C@@H](NC(=O)OC(C)(C)C)c4ccccc4)C[C@@](O)([C@@H](OC(=O)c4ccccc4)[C@H]21)C3(C)C [Docetaxel] + COc1cc2c(Oc3ccc(NC(=O)C4(C(=O)Nc5ccc(F)cc5)CC4)cc3F)ccnc2cc1OCCCN1CCOCC1 [Foretinib] (partner 0.25 µM)
relative viability: 0.538

// moving on: another record for relative viability
Consider the molecule shown here: CC(=O)O[C@@]12CO[C@@H]1C[C@H](O)[C@@]1(C)C(=O)[C@H](O)C3=C(C)[C@@H](OC(=O)[C@H](O)[C@@H](NC(=O)OC(C)(C)C)c4ccccc4)C[C@@](O)([C@@H](OC(=O)c4ccccc4)[C@H]21)C3(C)C [Docetaxel] + C[C@@H](Oc1cc(-c2cnn(C3CCNCC3)c2)cnc1N)c1c(Cl)ccc(F)c1Cl [Crizotinib] (partner 1 µM) What is its recorded relative viability?
0.29
